Target: wild-type AR (Homo sapiens)
Sequence (P10275 whole entry): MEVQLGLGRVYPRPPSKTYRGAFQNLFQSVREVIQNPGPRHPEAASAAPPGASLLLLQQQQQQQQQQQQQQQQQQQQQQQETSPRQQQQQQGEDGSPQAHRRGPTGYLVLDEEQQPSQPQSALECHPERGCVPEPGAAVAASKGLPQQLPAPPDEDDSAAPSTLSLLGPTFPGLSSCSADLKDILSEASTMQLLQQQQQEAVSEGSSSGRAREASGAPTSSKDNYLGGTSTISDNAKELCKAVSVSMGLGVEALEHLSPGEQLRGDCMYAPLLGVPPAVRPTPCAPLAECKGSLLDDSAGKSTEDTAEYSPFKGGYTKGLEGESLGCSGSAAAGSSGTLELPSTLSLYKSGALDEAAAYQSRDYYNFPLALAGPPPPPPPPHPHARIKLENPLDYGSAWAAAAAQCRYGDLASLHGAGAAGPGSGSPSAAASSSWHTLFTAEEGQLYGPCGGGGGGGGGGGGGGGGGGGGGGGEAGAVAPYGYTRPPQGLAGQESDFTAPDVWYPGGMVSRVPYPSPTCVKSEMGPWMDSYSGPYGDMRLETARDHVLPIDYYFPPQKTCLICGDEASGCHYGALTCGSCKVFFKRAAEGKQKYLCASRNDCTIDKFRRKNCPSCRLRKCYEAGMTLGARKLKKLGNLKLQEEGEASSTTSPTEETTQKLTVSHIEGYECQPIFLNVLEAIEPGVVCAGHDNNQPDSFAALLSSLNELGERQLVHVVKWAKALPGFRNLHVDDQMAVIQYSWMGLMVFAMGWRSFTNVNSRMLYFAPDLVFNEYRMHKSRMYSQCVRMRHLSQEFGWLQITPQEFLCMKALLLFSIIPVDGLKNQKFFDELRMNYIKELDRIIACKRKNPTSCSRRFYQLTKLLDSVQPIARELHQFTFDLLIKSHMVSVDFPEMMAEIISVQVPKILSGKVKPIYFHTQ
Experiment: Wild-type AR antagonist activity test (luciferase reporter in HEK293 cells)
Conditions: HEK293 cells, luciferase expression, DHT 1.5 nM, 24 hours
pIC50: −log10 of the molar value.
PROPERTY_MEASURED: pIC50

INSERT INTO assay_data (molecule, test_target, measured_value) VALUES
  ('Cc1cn(C2=CCC3C4CC=C5C[C@@H](NC(=O)c6ccc(F)cc6F)CC[C@]5(C)C4CC[C@]23C)cn1 (stereo partly drawn)', 'wild-type AR (Homo sapiens)', 6.63),
  ('Cc1cn(C2=CCC3C4CC=C5C[C@@H](NC(=O)c6ccc(S(C)(=O)=O)cc6)CC[C@]5(C)C4CC[C@]23C)cn1 (stereo partly drawn)', 'wild-type AR (Homo sapiens)', 6.36),
  ('Cc1cn(C2=CCC3C4CC=C5C[C@@H](NC(=O)c6ccc(F)cc6)CC[C@]5(C)C4CC[C@]23C)cn1 (stereo partly drawn)', 'wild-type AR (Homo sapiens)', 6.92),
  ('Cc1cn(C2=CCC3C4CC=C5C[C@@H](NC(=O)c6ccnnc6)CC[C@]5(C)C4CC[C@]23C)cn1 (stereo partly drawn)', 'wild-type AR (Homo sapiens)', 6.61),
  ('Cc1cn(C2=CCC3C4CC=C5C[C@@H](NC(=O)c6ccncc6)CC[C@]5(C)C4CC[C@]23C)cn1 (stereo partly drawn)', 'wild-type AR (Homo sapiens)', 6.61),
  ('Cc1cn(C2=CCC3C4CC=C5C[C@@H](NC(=O)c6ccc([N+](=O)[O-])cc6)CC[C@]5(C)C4CC[C@]23C)cn1 (stereo partly drawn)', 'wild-type AR (Homo sapiens)', 7.15);

====

Test: In vivo pharmacokinetics in rats after oral gavage
Details: rat, plasma; male SD rats, PO 10 mg/kg
PROPERTY_MEASURED: AUC(0-t) (ng·h/mL)

INSERT INTO measurements (compound, property_measured, measured_value) VALUES
  ('C[C@]12CC[C@H](NC(=O)c3ccncc3)CC1=CCC1C2CC[C@]2(C)C(n3ccnc3)=CCC12 (stereo partly drawn) [Compound 17]', 'AUC(0-t)', 28800),
  ('Cc1cn(C2=CCC3C4CC=C5C[C@@H](NC(=O)c6ccncc6)CC[C@]5(C)C4CC[C@]23C)cn1 (stereo partly drawn) [Compound 14]', 'AUC(0-t)', 24800),
  ('C[C@]12CC[C@H](O)CC1=CC[C@@H]1[C@@H]2CC[C@]2(C)C(c3cccnc3)=CC[C@@H]12 [Abiraterone, abiraterone, reference compound]', 'AUC(0-t)', 163),
  ('Cc1cn(C2=CCC3C4CC=C5C[C@@H](NC(=O)c6ccc(F)cc6)CC[C@]5(C)C4CC[C@]23C)cn1 (stereo partly drawn) [Compound 33]', 'AUC(0-t)', 68900),
  ('C[C@]12CC[C@H](NC(=O)c3ccnnc3)CC1=CCC1C2CC[C@]2(C)C(n3ccnc3)=CCC12 (stereo partly drawn) [Compound 16]', 'AUC(0-t)', 37400),
  ('Cc1cn(C2=CCC3C4CC=C5C[C@@H](NC(=O)c6ccc(F)cc6F)CC[C@]5(C)C4CC[C@]23C)cn1 (stereo partly drawn) [Compound 37]', 'AUC(0-t)', 22500);

====

Experiment: In vivo pharmacokinetics in rats after oral gavage
Conditions: rat, plasma; male SD rats, PO 10 mg/kg
PROPERTY_MEASURED: half-life (h)

INSERT INTO assay_data (compound, property_measured, measured_value) VALUES
  ('C[C@]12CC[C@H](NC(=O)c3ccnnc3)CC1=CCC1C2CC[C@]2(C)C(n3ccnc3)=CCC12 (stereo partly drawn) [Compound 16]', 'half-life', 2.36),
  ('C[C@]12CC[C@H](NC(=O)c3ccncc3)CC1=CCC1C2CC[C@]2(C)C(n3ccnc3)=CCC12 (stereo partly drawn) [Compound 17]', 'half-life', 10),
  ('C[C@]12CC[C@H](O)CC1=CC[C@@H]1[C@@H]2CC[C@]2(C)C(c3cccnc3)=CC[C@@H]12 [Abiraterone, abiraterone, reference compound]', 'half-life', 2.37);

Values compiled from patent US20250073249A1.
